# Test system: HEK293
# assay: Induction of microtubule stabilization in HEK293 cells assessed as increase in acetylated alpha tubulin levels at 10 uM after 4 hrs by ELISA relative to control
# Type: cell-based
# measurement conditions: Homo sapiens
Okay, here is how we bin by fold change (FC): band 1 = under 0.3, band 2 = from 0.3 up to 3, band 3 = 3 and over

Worked cases, answers included:
[[record]]
given_smiles = "C[C@@H](Nc1c(-c2c(F)cc(F)cc2F)c(Cl)nc2ncnn12)C1(C)N=N1"
assigned_category = "band 3"

[[record]]
given_smiles = "C[C@H](Nc1c(-c2c(F)cc(F)cc2F)c(Cl)nc2ncnn12)C1(C)N=N1"
assigned_category = "band 2"

[[record]]
given_smiles = "CC1(CNc2c(-c3c(F)cc(F)cc3F)c(Cl)nc3ncnn23)N=N1"
assigned_category = "band 3"

[[record]]
given_smiles = "C[C@H](Nc1c(-c2c(F)cc(OCCCNC(=O)c3ccc(C4(C(F)(F)F)N=N4)cc3)cc2F)c(Cl)nc2ncnn12)C(F)(F)F"
assigned_category = "band 3"

[[record]]
given_smiles = "CNCCCOc1cc(F)c(-c2c(Cl)nc3ncnn3c2N[C@@H](C)C(F)(F)F)c(F)c1"
assigned_category = "band 1"


Exercise: Could you tell me which band `C[C@H](Nc1c(-c2c(F)cc(OCCCN(C)C)cc2F)c(Cl)nc2ncnn12)C1(C)N=N1` belongs to?
Key: band 1

Exercise: Could you place `CN(C)CCCOc1cc(F)c(-c2c(Cl)nc3ncnn3c2NCC2(C)N=N2)c(F)c1` in its proper category? Many thanks.
Key: band 1

Exercise: Given `CO[C@@H]1C[C@H]2CC[C@@H](C1)N2c1c(-c2c(F)cc(F)cc2F)c(Cl)nc2ncnn12` , name the class its fold change (FC) places it in.
Key: band 3

Exercise: read the entry `C[C@@H](Nc1c(-c2c(F)cc(OCCCN(C)C)cc2F)c(Cl)nc2ncnn12)C1(C)N=N1` and state which class it falls under.
Key: band 2
